Sourced from the supplement of paper PMC9233669

Test system: biotinyl-Phe-oxazolone
protocol summary: self-aminoacylation, catalytic enhancement (BFO) (fold over background); higher = more active; k-Seq, kA / k0A0; sequences stand for … in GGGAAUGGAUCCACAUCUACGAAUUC…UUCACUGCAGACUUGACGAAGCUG
Variants at the floor of the assay were thinned out.
measure: self-aminoacylation
Please reply with the number alone, leaving off any unit.

CCACUUCAAAGAAUCGGUCUG [Fam1A.1 aminoacylation ribozyme variant]
11.4

[ask] Name the reported self-aminoacylation value associated with the sequence AUUCACAUAGGUCAUCGGGAG [Fam2.2 aminoacylation ribozyme variant]
[reply] 0.953

[ask] Suppose we examine the sequence UUUAACCUAGGUCAUCGGGUG [Fam2.2 aminoacylation ribozyme variant] ; what self-aminoacylation value has been reported?
[reply] 36.3

[ask] Can you share its self-aminoacylation? I mean this sequence: UUUACCCUGGUCAUUGAGUGA [Fam2.1 aminoacylation ribozyme variant]
[reply] 38.1

[ask] Fill in: self-aminoacylation of AACUUUGCUAAUAGUCGCAAU [Fam3.1 aminoacylation ribozyme variant] is ___
[reply] 6.33

----------
System: biotinyl-Phe-oxazolone
protocol summary: self-aminoacylation, catalytic enhancement (BFO) (fold over background); higher = more active; k-Seq, kA / k0A0; sequences stand for … in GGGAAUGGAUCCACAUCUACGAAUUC…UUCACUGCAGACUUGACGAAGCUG
Fewer inactive variants are shown than the library holds.
measure: self-aminoacylation
Answer using only a numeral; do not append any unit.

Recorded self-aminoacylation, per entry:
AUUACCCUCGUCAUCGAGUGU [Fam2.1 aminoacylation ribozyme variant]
1.56
ACGUUUGCAAAUAGUCGCAAG [Fam3.1 aminoacylation ribozyme variant]
1.27
AAGUUUGAUAAUAGUCGGAAG [Fam3.1 aminoacylation ribozyme variant]
0.778
CUACUUCAAUCAAUCGGUCCG [Fam1A.1 aminoacylation ribozyme variant]
6.48
AAGUCUGCUUAUAGUCGCAAG [Fam3.1 aminoacylation ribozyme variant]
1.42
AAGUUUGCUAACCGUCGCAAG [Fam3.1 aminoacylation ribozyme variant]
0.981

[ask] Using the record for AAGUUUGCUAAUAGUCGAUAG [Fam3.1 aminoacylation ribozyme variant] , report its self-aminoacylation.
[reply] 1.42

[ask] Which measured self-aminoacylation value corresponds to AUUACCCUGGUCAUAGAGUUA [Fam2.1 aminoacylation ribozyme variant] ?
[reply] 0.667

[ask] For the sequence shown here, AUUCACGUAGGUCAUUGGGUG [Fam2.2 aminoacylation ribozyme variant] , give the reported self-aminoacylation.
[reply] 25.2

[ask] GET /values?readout=self-aminoacylation&item= AUUACCCUGUUGAUCGAGUGA [Fam2.1 aminoacylation ribozyme variant]
[reply] 78.3

[ask] Fill blank: measured self-aminoacylation of the sequence AUUACCCUGGUCAACGAGUUA [Fam2.1 aminoacylation ribozyme variant] is ____.
[reply] 0.836

[ask] I'd like to know its self-aminoacylation. The sequence in question is AUUUCCCGGGUCAUCGAGUGA [Fam2.1 aminoacylation ribozyme variant]
[reply] 45.6

[ask] Consider the sequence AUUAACCUAGGUCAUCGGCUG [Fam2.2 aminoacylation ribozyme variant] and give its measured self-aminoacylation.
[reply] 4.37

[ask] Reported self-aminoacylation, sequence CCAUACUUCAAGCAAUCGGUA [Fam1B.1 aminoacylation ribozyme variant] : ____
[reply] 1.04

[ask] For the sequence AUUACCUUGCUCAUCGAGUGA [Fam2.1 aminoacylation ribozyme variant] , what self-aminoacylation is on record?
[reply] 4.55

----------
Tested on: biotinyl-Phe-oxazolone
protocol summary: self-aminoacylation, catalytic enhancement (BFO) (fold over background); higher = more active; k-Seq, kA / k0A0; sequences stand for … in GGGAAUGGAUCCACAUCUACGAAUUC…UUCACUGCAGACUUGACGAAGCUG
Fewer inactive variants are shown than the library holds.
Respond with y for self-aminoacylation values of 7 and above, n for values below.

The examples below pair each entry with its known result.
AUACUUCAAACAAUCAGUCUG [Fam1A.1 aminoacylation ribozyme variant]
y
AUUGACCUAGGUCAUCGGGUA [Fam2.2 aminoacylation ribozyme variant]
y
AUUCGCCUUGGUCAUCGGGUG [Fam2.2 aminoacylation ribozyme variant]
y
AUAAUUCAAACAAUCGGUCUG [Fam1A.1 aminoacylation ribozyme variant]
n
CCACACUUCAAGACAUCGGUC [Fam1B.1 aminoacylation ribozyme variant]
n
AUUACCCUGGUCCUCGAGAGA [Fam2.1 aminoacylation ribozyme variant]
n
AGGUUUGCUAAUAGUCGCAGG [Fam3.1 aminoacylation ribozyme variant]
n

[ask] # check: self-aminoacylation of AUACACCUAGAUCAUCGGGUG [Fam2.2 aminoacylation ribozyme variant] is greater than or equal to 7
[reply] y

----------
Tested on: biotinyl-Met-oxazolone
protocol summary: self-aminoacylation, catalytic enhancement (BMO) (fold over background); higher = more active; k-Seq, kA / k0A0; sequences stand for … in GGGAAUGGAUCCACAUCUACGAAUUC…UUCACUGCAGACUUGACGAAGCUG
Fewer inactive variants are shown than the library holds.
Param threshold (5) applies to self-aminoacylation; output 1 when value >= threshold, 0 when value < threshold.

Some solved cases for reference:
AUUCACUUAGGUCAUCGCGUG [Fam2.2 aminoacylation ribozyme variant]
1
AAUACCCGGGUCAUCGAGUGA [Fam2.1 aminoacylation ribozyme variant]
1
AUUCAGCUAGGUCAACGGGUG [Fam2.2 aminoacylation ribozyme variant]
0

Now for another entry.
[ask] Determine whether this sequence has self-aminoacylation no lower than 5: CCACACGUCAAGCAAUCGGUG [Fam1B.1 aminoacylation ribozyme variant]
[reply] 0

----------
Quick reference: self-aminoacylation of the listed items.
Tested on: biotinyl-Ile-oxazolone
protocol summary: self-aminoacylation, catalytic enhancement (BIO) (fold over background); higher = more active; k-Seq, kA / k0A0; sequences stand for … in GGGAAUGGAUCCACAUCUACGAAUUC…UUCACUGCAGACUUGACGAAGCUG
Fewer inactive variants are shown than the library holds.

AUUCACGUAGGUCAUCGGGGG [Fam2.2 aminoacylation ribozyme variant]
2.24

[ask] GET /values?readout=self-aminoacylation&item= CCAUACUUCAAGCAAUCGGUA [Fam1B.1 aminoacylation ribozyme variant]
[reply] 1.33

[ask] Given the entry AAGUUUACUAAUAUUCGCAAG [Fam3.1 aminoacylation ribozyme variant] , report its measured self-aminoacylation.
[reply] 1.67

[ask] Item under review: AAGUUUGCUAAAAGUCGUAAG [Fam3.1 aminoacylation ribozyme variant] . Reported self-aminoacylation?
[reply] 1.12

[ask] State the recorded self-aminoacylation for this entry: AUACACCUAUGUCAUCGGGUG [Fam2.2 aminoacylation ribozyme variant]
[reply] 2.46

[ask] // lookup self-aminoacylation for AUUUCCCUGGUCAUCGAGUGG [Fam2.1 aminoacylation ribozyme variant]
[reply] 3.66

----------
System: biotinyl-Trp-oxazolone
protocol summary: self-aminoacylation, catalytic enhancement (BWO) (fold over background); higher = more active; k-Seq, kA / k0A0; sequences stand for … in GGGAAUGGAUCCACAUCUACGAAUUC…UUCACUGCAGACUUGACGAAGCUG
This sample holds only a part of the variants without activity.
Listed here are sequences together with their documented self-aminoacylation.
Please reply with the number alone, leaving off any unit.

Record excerpt, results attached:
CCACUCUUCAAGCAAUAGGUC [Fam1B.1 aminoacylation ribozyme variant]
0.484
AUUCACCUAGGUCAUCAGAUG [Fam2.2 aminoacylation ribozyme variant]
0.522
CCACACUUCAAGCAAUCUGUC [Fam1B.1 aminoacylation ribozyme variant]
0.369

# context switch: different sequence, same self-aminoacylation
[ask] Endpoint output: self-aminoacylation of AAGUUUGCUGAUAGUCACAAG [Fam3.1 aminoacylation ribozyme variant] . Value?
[reply] 1.62

----------
Reported values of self-aminoacylation for individual entries
System: biotinyl-Leu-oxazolone
protocol summary: self-aminoacylation, catalytic enhancement (BLO) (fold over background); higher = more active; k-Seq, kA / k0A0; sequences stand for … in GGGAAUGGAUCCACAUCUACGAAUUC…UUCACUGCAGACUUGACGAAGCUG
Variants at the floor of the assay were thinned out.
Give the figure only, with no unit attached.

[ask] Given AUGACCCUGGUCAUCGAGUGU [Fam2.1 aminoacylation ribozyme variant] , state its recorded self-aminoacylation.
[reply] 85.3

[ask] // self-aminoacylation lookup, key: AAAUUUGCGAAUAGUCGCAAG [Fam3.1 aminoacylation ribozyme variant]
[reply] 1.33

[ask] Reported self-aminoacylation for CCACACUUCAAUUAAUCGGUC [Fam1B.1 aminoacylation ribozyme variant] : what is it?
[reply] 1.09

[ask] Fill blank: measured self-aminoacylation of the sequence CUACUUCAAACAAUCGCUCGG [Fam1A.1 aminoacylation ribozyme variant] is ____.
[reply] 0.768

----------
Tested on: biotinyl-Met-oxazolone
protocol summary: self-aminoacylation, catalytic enhancement (BMO) (fold over background); higher = more active; k-Seq, kA / k0A0; sequences stand for … in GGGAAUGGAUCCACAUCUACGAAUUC…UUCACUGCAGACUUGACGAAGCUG
Fewer inactive variants are shown than the library holds.
Assign TRUE to entries whose self-aminoacylation meets or exceeds 1; assign FALSE to the rest.

Solved entries:
AUUGCCCUGGUCAUCGAGUAA [Fam2.1 aminoacylation ribozyme variant]
TRUE
GGUACCCUGGUCAUCGAGUGA [Fam2.1 aminoacylation ribozyme variant]
TRUE

Next, consider the following sequence.
[ask] Decide: self-aminoacylation of AUUACCCUGGUCAUCGAGCCA [Fam2.1 aminoacylation ribozyme variant] >= 1?
[reply] TRUE
